# targetDesc: human FGFR1 kinase (human, UniProt P11362 398-822, limits assumed)
# Sequence (P11362 398-822 limits assumed): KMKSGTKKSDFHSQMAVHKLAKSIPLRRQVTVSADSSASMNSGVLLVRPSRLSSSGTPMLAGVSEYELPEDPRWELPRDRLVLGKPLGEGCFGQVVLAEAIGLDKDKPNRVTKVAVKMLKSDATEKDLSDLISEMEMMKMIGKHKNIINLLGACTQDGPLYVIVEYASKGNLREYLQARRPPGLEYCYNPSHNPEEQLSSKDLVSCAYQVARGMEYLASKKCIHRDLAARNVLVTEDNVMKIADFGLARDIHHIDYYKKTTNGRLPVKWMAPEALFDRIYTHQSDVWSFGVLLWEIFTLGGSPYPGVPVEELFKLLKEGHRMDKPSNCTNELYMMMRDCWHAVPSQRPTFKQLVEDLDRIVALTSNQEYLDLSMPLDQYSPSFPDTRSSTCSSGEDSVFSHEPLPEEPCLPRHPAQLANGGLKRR
# protocolText: cell-based or functional assay
*: point of attachment. Palmitoyl = CCCCCCCCCCCCCCCC(=O)*
measuredProperty: FGFR1 Kinase % Inhibition
Provide a numeric answer, followed by its unit.

binder	FGFR1 Kinase % Inhibition
Palmitoyl-KFNAPLGNYKKP-NH2 (SMILES CCCCCCCCCCCCCCCC(=O)N[C@@H](CCCCN)C(=O)N[C@@H](Cc1ccccc1)C(=O)N[C@@H](CC(N)=O)C(=O)N[C@@H](C)C(=O)N1CCC[C@H]1C(=O)N[C@@H](CC(C)C)C(=O)NCC(=O)N[C@@H](CC(N)=O)C(=O)N[C@@H](Cc1ccc(O)cc1)C(=O)N[C@@H](CCCCN)C(=O)N[C@@H](CCCCN)C(=O)N1CCC[C@H]1C(N)=O) [Peptide 4: Palm-Lys-Phe-Asn-Ala-Pro-Leu-Gly-Asn-Tyr-Lys-Lys-Pro-NH2]	0%

// FGFR1 Kinase % Inhibition lookup, binder = Palmitoyl-KFNLPLANYKKP-NH2 (SMILES CCCCCCCCCCCCCCCC(=O)N[C@@H](CCCCN)C(=O)N[C@@H](Cc1ccccc1)C(=O)N[C@@H](CC(N)=O)C(=O)N[C@@H](CC(C)C)C(=O)N1CCC[C@H]1C(=O)N[C@@H](CC(C)C)C(=O)N[C@@H](C)C(=O)N[C@@H](CC(N)=O)C(=O)N[C@@H](Cc1ccc(O)cc1)C(=O)N[C@@H](CCCCN)C(=O)N[C@@H](CCCCN)C(=O)N1CCC[C@H]1C(N)=O) [Peptide 7: Palm-Lys-Phe-Asn-Leu-Pro-Leu-Ala-Asn-Tyr-Lys-Lys-Pro-NH2] , result: 0%
